- target_desc: PR-LBD fused to Gal4-DBD (Homo sapiens, UniProt P06401)
- Construct: PR-LBD region was PCR amplified using the following primer combination; host or cells: U2OS
- Sequence (P06401 679-913 limits assumed): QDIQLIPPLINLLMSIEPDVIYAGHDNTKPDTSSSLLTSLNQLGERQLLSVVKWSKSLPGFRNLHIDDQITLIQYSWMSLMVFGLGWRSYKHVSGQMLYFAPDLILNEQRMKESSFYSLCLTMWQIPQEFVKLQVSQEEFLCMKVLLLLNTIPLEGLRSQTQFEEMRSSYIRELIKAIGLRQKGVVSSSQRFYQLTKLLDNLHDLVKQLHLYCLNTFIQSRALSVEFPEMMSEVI
- test_method_notes: U2OS-PR-LBD/9xGal4UAS luciferase reporter cell line
- Assay type: cell-based
- experimental_setup: antagonist mode, PR-LBD/9xGal4UAS; log10 of molar IC50, mean ± SEM; read-out: Log IC50 (converted)
The entries below come with measured IC50 values attached.

>>> print(df.to_string())
                                   compound  value_type  assay_value
0  C#C[C@]1(O)CC[C@H]2[C@@H]3CCC4=Cc5oncc5C[C@]4(C)[C@H]3CC[C@@]21C        IC50     0.692 µM
1  CCCc1c(-c2ccc(O)cc2)nn(-c2ccc(O)cc2)c1-c1ccc(O)cc1        IC50      > 10 µM

Task: Fill in: IC50 of C[C@@H]1C[C@H]2[C@@H]3CCC4=CC(=O)C=C[C@]4(C)[C@@]3(F)[C@@H](O)C[C@]2(C)[C@@]1(O)C(=O)CO is ___
Result: > 10 µM

Task: Can you check C[C@]12C=CC(=O)C=C1CC[C@H]1[C@@H]3C[C@@H](O)[C@](O)(C(=O)CO)[C@@]3(C)C[C@H](O)[C@@]12F next?
Result: > 10 µM
